# reported AUC; entries follow
Test: Pharmacokinetic Assay, single oral dose 100 mg/kg (Table 11)
Type: in vivo
Settings: mouse, C57 female mice, oral (intragastric), plasma
Protocol: Adult C57 female mice were received to single-dose of the test compounds with […], 10% Kolliphor^@HS 15 and 80% saline as excipients, the mice (n=9) were giving oral administration (intragastric administration) with the compounds at a dose of 100 mg/kg. […] The plasma was transferred into centrifuge tubes, and stored at −20° C. until being analyzed. Concentrations of test compounds in the plasma samples were analyzed with liquid chromatography-tandem mass spectrometry (LC-MS/MS). […]
endpoint.name: AUC (ng·h/mL)

1) COC[C@@H]1CCCN1Cc1cc2nc(-c3cccc(-c4cccc(-c5nc6cc(CN7CCC[C@H]7C(=O)O)c(OC(F)F)cc6o5)c4C)c3C)oc2cc1OC(F)F [Example 63] :: 43700
2) Cc1c(-c2nc3cc(CNC[C@@H]4CCCO4)c(OC(F)F)cc3o2)cccc1-c1cccc(-c2nc3cc(CN4CCC[C@H]4C(=O)O)c(OC(F)F)cc3o2)c1C [Example 64] :: 61500
3) Cc1c(-c2ccc(CN3CCCC3)c(F)c2)cccc1-c1cccc(-c2nc3cc(CN4CCC[C@H]4C(=O)O)c(OC(F)F)cc3o2)c1C [Example 243] :: 67400
4) Cc1c(-c2nc3cc(CNC[C@H]4CCCO4)c(OC(F)F)cc3o2)cccc1-c1cccc(-c2nc3cc(CN4CCC[C@H]4C(=O)O)c(OC(F)F)cc3o2)c1C [Example 29] :: 42700
5) Cc1c(-c2nc3cc(CN4CCC[C@H]4C(=O)O)c(OC(F)F)cc3o2)cccc1-c1cccc(-c2nc3cc(CN4CC(C)(C)C4)cc(C#N)c3o2)c1C [Example 103] :: 96400
6) Cc1c(-c2nc3cc(CNC4COC4)c(OC(F)F)cc3o2)cccc1-c1cccc(-c2nc3cc(CN4CCC[C@H]4C(=O)O)c(OC(F)F)cc3o2)c1C [Example 28] :: 5800

###

Assay: Pharmacokinetic Assay, single oral dose 5 mg/kg (Table 12)
Type: in vivo
Conditions: mouse; plasma concentration, C57 female mice, single oral dose 5 mg/kg, 4 h
# reported concentration at 4 h; entries follow
endpoint.name: concentration at 4 h

1) Cc1c(-c2nc3cc(CN4CCC[C@H]4C(=O)O)c(OC(F)F)cc3o2)cccc1-c1cccc(-c2nc3cc(CN4[C@H]5CC[C@@H]4CC5)c(OC(F)F)cc3o2)c1C :: 132 ng/mL
2) Cc1c(-c2nc3c(o2)CCCC3)cccc1-c1cccc(-c2nc3cc(CN4CCC[C@H]4C(=O)O)c(OC(F)F)cc3o2)c1C :: 1420 ng/mL
3) Cc1c(-c2nc3cc(CN4CC(C)(C)C4)c(OC(F)F)cc3o2)cccc1-c1cccc(-c2nc3cc(CN4CCC[C@H]4C(=O)O)c(OC(F)F)cc3o2)c1C :: 154 ng/mL

###

Experiment: Pharmacokinetic Assay, single oral dose 5 mg/kg (Table 12)
Format: in vivo
Details: mouse; plasma concentration, C57 female mice, single oral dose 5 mg/kg, 4 h
endpoint.name: concentration at 4 h (ng/mL)

1. Cc1c(-c2nc3c(o2)CCN(CCC(F)(F)F)C3)cccc1-c1cccc(-c2nc3cc(CN4CCC[C@H]4C(=O)O)c(OC(F)F)cc3o2)c1C :: 1100
2. Cc1c(-c2ccc(CN3Cc4ccccc4C3)c(F)c2)cccc1-c1cccc(-c2nc3cc(CN4CCC[C@H]4C(=O)O)c(OC(F)F)cc3o2)c1C :: 294
3. Cc1c(-c2nc3cc(CN4CCC[C@H]4C(=O)O)c(OC(F)F)cc3o2)cccc1-c1cccc(-c2ccc(CN3CCCC3)cc2Cl)c1C :: 156
4. Cc1c(-c2nc3cc(CN4CC[C@@H](C(=O)O)C4)c(OC(F)F)cc3o2)cccc1-c1cccc(-c2nc3cc(CN4CC(C)(C)C4)c(OC(F)F)cc3o2)c1C :: 135
5. Cc1c(-c2nc3cc(CN4CCC[C@H]4C(=O)O)c(OC(F)F)cc3o2)cccc1-c1cccc(-c2nc3cc(CN4CCCC4)c(C(F)(F)F)cc3o2)c1C :: 579
6. Cc1c(-c2nc3c(o2)CCN(CC2CCO2)C3)cccc1-c1cccc(-c2nc3cc(CN4CCC[C@H]4C(=O)O)c(OC(F)F)cc3o2)c1C (stereo partly drawn) :: 268

Value source: patent US12187713B2
